# tested_on: LFA-1 (Homo sapiens, UniProt P20701)
# Construct: endogenous in cells; host or cells: Jurkat cells
# Sequence (P20701 26-1170): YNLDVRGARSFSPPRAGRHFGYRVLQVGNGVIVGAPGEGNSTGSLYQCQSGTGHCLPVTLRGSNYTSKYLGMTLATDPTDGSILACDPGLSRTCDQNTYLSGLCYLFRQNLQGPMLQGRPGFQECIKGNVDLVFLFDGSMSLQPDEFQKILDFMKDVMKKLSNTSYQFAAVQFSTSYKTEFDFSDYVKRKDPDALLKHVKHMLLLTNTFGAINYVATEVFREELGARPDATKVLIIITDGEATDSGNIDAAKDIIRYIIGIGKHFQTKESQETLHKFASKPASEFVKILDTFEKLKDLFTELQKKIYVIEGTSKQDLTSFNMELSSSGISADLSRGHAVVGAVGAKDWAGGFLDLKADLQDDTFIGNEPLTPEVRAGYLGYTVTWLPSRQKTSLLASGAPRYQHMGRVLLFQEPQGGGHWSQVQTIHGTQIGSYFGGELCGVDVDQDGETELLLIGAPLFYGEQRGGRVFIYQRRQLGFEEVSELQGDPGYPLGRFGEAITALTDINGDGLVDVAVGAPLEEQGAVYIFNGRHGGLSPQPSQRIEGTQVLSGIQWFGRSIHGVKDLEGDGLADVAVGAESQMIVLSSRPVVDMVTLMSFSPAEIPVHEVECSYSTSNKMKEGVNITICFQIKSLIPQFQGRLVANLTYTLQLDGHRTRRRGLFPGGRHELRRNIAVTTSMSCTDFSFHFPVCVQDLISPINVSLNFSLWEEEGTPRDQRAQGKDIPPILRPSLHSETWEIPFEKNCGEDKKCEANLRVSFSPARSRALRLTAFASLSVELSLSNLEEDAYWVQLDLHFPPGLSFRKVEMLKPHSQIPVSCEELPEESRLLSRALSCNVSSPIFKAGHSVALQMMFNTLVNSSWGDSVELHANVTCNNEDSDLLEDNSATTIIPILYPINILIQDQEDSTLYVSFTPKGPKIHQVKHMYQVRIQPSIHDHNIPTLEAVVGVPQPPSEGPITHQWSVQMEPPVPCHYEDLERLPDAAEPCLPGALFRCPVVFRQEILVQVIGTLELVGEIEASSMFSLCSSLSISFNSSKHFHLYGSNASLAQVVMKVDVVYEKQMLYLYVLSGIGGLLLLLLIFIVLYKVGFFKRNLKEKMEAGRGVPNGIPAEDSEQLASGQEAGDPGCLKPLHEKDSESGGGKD
# Sequence (P05107 23-769 partner): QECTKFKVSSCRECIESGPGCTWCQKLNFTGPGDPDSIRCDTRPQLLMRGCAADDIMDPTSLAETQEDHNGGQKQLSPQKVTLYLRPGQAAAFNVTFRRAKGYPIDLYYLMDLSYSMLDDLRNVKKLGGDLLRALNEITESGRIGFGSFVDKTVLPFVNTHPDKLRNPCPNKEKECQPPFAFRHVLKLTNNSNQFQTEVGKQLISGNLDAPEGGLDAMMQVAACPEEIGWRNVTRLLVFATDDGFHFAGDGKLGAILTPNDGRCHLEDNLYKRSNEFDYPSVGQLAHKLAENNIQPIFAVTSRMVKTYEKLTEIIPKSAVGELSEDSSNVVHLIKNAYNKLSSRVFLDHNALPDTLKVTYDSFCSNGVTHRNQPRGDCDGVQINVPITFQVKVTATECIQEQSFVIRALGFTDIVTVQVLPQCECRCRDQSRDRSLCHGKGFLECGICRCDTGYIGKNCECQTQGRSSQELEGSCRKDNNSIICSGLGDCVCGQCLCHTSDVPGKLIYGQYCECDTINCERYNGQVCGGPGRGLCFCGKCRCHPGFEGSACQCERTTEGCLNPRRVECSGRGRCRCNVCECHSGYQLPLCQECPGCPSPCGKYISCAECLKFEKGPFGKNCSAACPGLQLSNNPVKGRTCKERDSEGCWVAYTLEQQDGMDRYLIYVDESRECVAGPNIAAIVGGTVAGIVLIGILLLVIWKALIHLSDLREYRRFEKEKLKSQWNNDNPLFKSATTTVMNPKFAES
# assay_text: Flow cytometry, mAb MEM148 binding to LFA-1 expressed on leukocytes
# Assay type: cell-based
# recorded_conditions: solvent ctrl = 1, Jurkat cells or PBMCs
Below is a list of entries, each paired with its recorded mAb MEM148 binding, binding relative to solvent ctrl at 10 μM value.
// no unit string in output, number only

Below are worked cases with known answers.
Can you share its mAb MEM148 binding, binding relative to solvent ctrl at 10 μM? I mean this molecule: CCOC(=O)[C@@]1(c2ccc(Br)cc2)[C@@H]2C(=O)N(c3cc(Cl)cc(Cl)c3)C(=O)[C@@]21C (racemic) [4′j (racemate)]
0.738

Also C[C@]12C(=O)N(c3cc(Cl)cc(Cl)c3)C(=O)[C@H]1C2(c1ccccc1)c1ccccc1 (racemic) [4b (racemate)] ?
0.974

More entries:
Can you share its mAb MEM148 binding, binding relative to solvent ctrl at 10 μM? I mean this molecule: C[C@]12C(=O)N(c3cc(Cl)cc(Cl)c3)C(=O)[C@H]1[C@H]2c1ccc(OC(F)(F)F)cc1 (racemic) [4′g (racemate)]
0.89

Also C[C@]12C(=O)N(c3cc(Cl)cc(Cl)c3)C(=O)[C@H]1[C@H]2c1ccc(Br)cc1 (racemic) [4′f (racemate)] ?
0.96

Also CC12C(=O)N(c3cc(Cl)cc(Cl)c3)C(=O)C1C2(c1ccc(C#N)cc1)c1ccc(OC(F)(F)F)cc1 (single isomer, unassigned) [4i/4′i diastereomer II (racemate)] ?
0.937

Also C[C@]12C(=O)N(c3cc(Cl)cc(Cl)c3)C(=O)[C@H]1[C@H]2c1ccc(C#N)cc1 (racemic) [4′h (racemate)] ?
1.00

---

# tested_on: LFA-1 (Homo sapiens, UniProt P20701)
# Construct: endogenous in cells; host or cells: Jurkat cells
# assay_text: Flow cytometry, mAb R7.1 binding to LFA-1 expressed on leukocytes
# Format: cell-based
# recorded_conditions: Jurkat, Jurkat cells or human PBMCs, values of independent experiments
Below is a list of entries, each paired with its recorded inhibition at 1 µM value.
# value in %; strip the unit string

Below are worked cases with known answers.
Can you share its inhibition at 1 µM? I mean this compound: C[C@]12C(=O)N(c3cc(Cl)cc(Cl)c3)C(=O)[C@H]1[C@H]2c1ccccc1 (racemic) [4′d (racemate)]
80.5

Also "N#Cc1ccc(C2(c3ccc(C#N)cc3)[C@@H]3C(=O)N(c4cc(Cl)cc(Cl)c4)C(=O)[C@@H]32)cc1" ?
87.1

Also C[C@]12C(=O)N(c3cc(Cl)cc(Cl)c3)C(=O)[C@H]1[C@H]2c1ccc(OC(F)(F)F)cc1 (racemic) [4′g (racemate)] ?
93.6

Also CCOC(=O)[C@@]1(c2ccc(Br)cc2)[C@@H]2C(=O)N(c3cc(Cl)cc(Cl)c3)C(=O)[C@@]21C (racemic) [4′j (racemate)] ?
93.6

Let us move to another entry and its inhibition at 1 µM.
Can you share its inhibition at 1 µM? I mean this compound: C[C@]12C(=O)N(c3cc(Cl)cc(Cl)c3)C(=O)[C@H]1[C@H]2c1ccc(C#N)cc1 (racemic) [4′h (racemate)]
96.8

---

# tested_on: LFA-1 (Homo sapiens)
# Construct: endogenous in cells
# assay_text: V well cell adhesion assay, LFA-1-mediated Jurkat cell binding to ICAM-1 (LFA-1 adhesion)
# recorded_conditions: Jurkat cells on ICAM-1/Fc; mean ±SD of ≥3 independent experiments in triplicates or single experiments in triplicates
# Experimental: Cell-Based Assay to Determine the Effect of the Compounds on LFA-1-Mediated Cell Adhesion (LFA-1 Adhesion) […] The labelled Jurkat cells were re-suspended in binding buffer and test compounds or solvent control were added. […] The determination of the half maximal inhibitory concentration (IC50) of the compounds was calculated using the software GraphPad Prism 6.
measured_parameter: IC50

Recorded IC50 for O=C1C2C(C(=O)N1c1cc(Cl)cc(Cl)c1)C2(c1ccncc1)c1ccc(OC(F)(F)F)cc1 (single isomer, unassigned) [4w or 4′w diastereomer II] with LFA-1 (Homo sapiens), please?
> 1000 nM

Also N#Cc1ccc(C2(c3ccc(C#N)cc3)[C@@H]3C(=O)N(c4cc(Cl)cc(Cl)c4)C(=O)[C@@H]32)cc1 [Compound 4u] ?
> 1000 nM

Let us move to another entry and its IC50.
Recorded IC50 for CC12C(=O)N(c3cc(Cl)cc(Cl)c3)C(=O)C1C2(c1ccccc1)c1ccccc1 (single isomer, unassigned) [4b enantiomer B] with LFA-1 (Homo sapiens), please?
> 10000 nM

---

# tested_on: LFA-1 (Homo sapiens, UniProt P20701)
# Construct: endogenous in cells
# assay_text: V well cell adhesion assay, LFA-1-mediated Jurkat cell binding to ICAM-1 (LFA-1 adhesion)
# recorded_conditions: Jurkat cells on ICAM-1/Fc; mean ±SD of ≥3 independent experiments in triplicates or single experiments in triplicates
measured_parameter: pIC50
Just so you know, pIC50 here is -log10 of the concentration in molar units; reply with that number alone.

Below are worked cases with known answers.
Recorded pIC50 for "O=C1[C@@H]2[C@H](C(=O)N1c1cc(Cl)cc(Cl)c1)C2(c1ccccc1)c1ccccc1" with LFA-1 (Homo sapiens, UniProt P20701), please?
5.07

Also CC12C(=O)N(c3cc(Cl)cc(Cl)c3)C(=O)C1C2(c1ccncc1)c1ccc(C#N)cc1 (single isomer, unassigned) [4z or 4′z diastereomer II (racemate)] ?
7.15

Also N#Cc1ccc(C2(c3ccc(OC(F)(F)F)cc3)C3C(=O)N(c4cc(Cl)cc(Cl)c4)C(=O)C32)cc1 (single isomer, unassigned) [4r or 4′r diastereomer I] ?
6.02

Let us move to another entry and its pIC50.
Recorded pIC50 for C[C@]12C(=O)N(c3cc(Cl)cc(Cl)c3)C(=O)[C@H]1C2(c1ccc(C#N)cc1)c1ccc(C#N)cc1 (racemic) [4v (racemate)] with LFA-1 (Homo sapiens, UniProt P20701), please?
7.35

---

# tested_on: LFA-1 (Homo sapiens)
# Construct: endogenous in cells; host or cells: Jurkat cells
# assay_text: Flow cytometry, mAb R7.1 binding to LFA-1 expressed on leukocytes
# Format: cell-based
# recorded_conditions: Jurkat, Jurkat cells or human PBMCs, values of independent experiments
Below is a list of entries, each paired with its recorded inhibition at 1 µM value.
# value in %; strip the unit string

Below are worked cases with known answers.
Can you share its inhibition at 1 µM? I mean this compound: "O=C1[C@@H]2[C@H](C(=O)N1c1cc(Cl)cc(Cl)c1)C2(c1ccc(OC(F)(F)F)cc1)c1ccc(OC(F)(F)F)cc1"
74.3

Also C[C@]12C(=O)N(c3cc(Cl)cc(Cl)c3)C(=O)[C@H]1C2(c1ccccc1)c1ccccc1 (racemic) [4b (racemate)] ?
76.9

Also CC12C(=O)N(c3cc(Cl)cc(Cl)c3)C(=O)C1C2(c1ccccc1)c1ccccc1 (single isomer, unassigned) [4b enantiomer A] ?
87.3

Also CC12C(=O)N(c3cc(Cl)cc(Cl)c3)C(=O)C1C2(c1ccc(C#N)cc1)c1ccc(OC(F)(F)F)cc1 (single isomer, unassigned) [4i/4′i diastereomer II (racemate)] ?
98.6

Let us move to another entry and its inhibition at 1 µM.
Can you share its inhibition at 1 µM? I mean this compound: C[C@]12C(=O)N(c3cc(Cl)cc(Cl)c3)C(=O)[C@H]1[C@H]2c1ccc(Br)cc1 (racemic) [4′f (racemate)]
85.2
